# Method description: binders of probe aFST on microarray, primary screen, stem cell growth factor project, biochemical, small-molecule microarray, fluorescence 635/667 (AID 1086);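 further: score merges 667 nm fluorescence with signal-to-noise of each printed compound spot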
# Condition: higher = more signal
composite z-score listing for selected molecules.
Readout kind: composite z-score

INSERT INTO measurements (molecule, readout_kind, result) VALUES
  ('COCCOC(=O)N1C(=O)[C@@]2(c3cc(C#CC4(O)CCCCCC4)ccc31)[C@H](c1ccccc1OCCO)N1[C@H](c3ccccc3)[C@H](c3ccccc3)OC(=O)[C@H]1[C@@H]2C(=O)N1CCCCCCC1', 'composite z-score', 2.73),
  ('CC[C@H](C)C(=O)O[C@H]1CC[C@]2(C)C3=C(CCC2C1(C)C)[C@]1(C)CC[C@H]([C@H](C)CCCC(C)C)[C@@]1(C)CC3 (some centres undefined)', 'composite z-score', 0.0889),
  ('C=C(COC)/C(=C/C[C@H](OC(=O)c1ccncc1)c1ccc(OCCO)cc1)c1cc(C(=O)OC)ccc1OC', 'composite z-score', 1.42),
  ('COC(=O)[C@H](Cc1ccc(O)cc1)N1CC2=CCCC=C[C@@H]2[C@H]1[C@H](O)Cc1ccccc1', 'composite z-score', 0.166);

----------
# System name: NADPH oxidase 5 (Homo sapiens) (UniProt Q96PH1)
# Sequence (Q96PH1 whole entry, looked up): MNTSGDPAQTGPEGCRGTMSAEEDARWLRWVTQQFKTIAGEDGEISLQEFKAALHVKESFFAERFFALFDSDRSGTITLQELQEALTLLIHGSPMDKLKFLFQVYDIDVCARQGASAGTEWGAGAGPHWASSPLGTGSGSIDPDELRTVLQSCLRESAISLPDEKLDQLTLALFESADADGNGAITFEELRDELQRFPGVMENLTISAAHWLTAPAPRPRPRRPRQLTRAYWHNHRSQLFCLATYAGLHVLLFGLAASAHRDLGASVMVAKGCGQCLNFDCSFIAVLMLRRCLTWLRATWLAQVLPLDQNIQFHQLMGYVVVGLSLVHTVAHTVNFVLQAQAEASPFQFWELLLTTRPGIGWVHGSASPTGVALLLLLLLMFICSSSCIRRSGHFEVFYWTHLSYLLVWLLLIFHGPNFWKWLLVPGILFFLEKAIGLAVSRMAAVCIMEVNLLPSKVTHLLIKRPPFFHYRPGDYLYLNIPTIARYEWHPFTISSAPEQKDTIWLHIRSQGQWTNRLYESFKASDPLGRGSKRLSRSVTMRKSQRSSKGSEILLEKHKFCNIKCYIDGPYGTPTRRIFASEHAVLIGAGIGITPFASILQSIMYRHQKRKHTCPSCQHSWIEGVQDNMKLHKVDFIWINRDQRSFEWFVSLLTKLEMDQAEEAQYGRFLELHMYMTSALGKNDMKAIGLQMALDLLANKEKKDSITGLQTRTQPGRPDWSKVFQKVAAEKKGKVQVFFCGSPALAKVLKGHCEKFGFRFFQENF
# Method description: NOX5-dependent H2O2 signal modulators, primary screen, NOX inhibitor project, cell-based, HEK293-NOX5, Amplex Red fluorescence (AID 1161)
# Condition: HEK293-NOX5, ionomycin, 45 min, higher = more signal
Parameter class (string): assigned from measured z-score. Ranges: lo: < -0.2; med: ≥ -0.2 and < 0.8; hi: ≥ 0.8

INSERT INTO measurements (molecule, label_class) VALUES
  ('NCCCC[C@@H]1NC(=O)[C@H]2C[C@@H](C(=O)O)[C@@H](c3cccc(OCCO)c3)N2C1=O', 'med'),
  ('COCCOC(=O)N1C(=O)[C@@]2(c3cc(C#CCC(C(=O)OC)C(=O)OC)ccc31)[C@H](c1ccc(OCCO)cc1)N1[C@H](c3ccccc3)[C@H](c3ccccc3)OC(=O)[C@H]1[C@@H]2C(=O)N1CCCCCCC1', 'hi'),
  ('CC(c1ccccc1)C(O)C1C=CC2C(=O)N(c3ccccc3)C(=O)C2N1Nc1ccc(C#N)cc1 (centres undefined)', 'lo'),
  ('CC(C)[C@@H](C(=O)O)n1cc(-c2ccccc2)nn1', 'med'),
  ('CN(C)CCCC[C@@H]1NC(=O)[C@H]2C[C@@H](C(=O)NCc3ccc(F)cc3)[C@@H](c3ccc(O)cc3)N2C1=O', 'med'),
  ('COCCCNC(=O)[C@@H]1c2ccccc2C(=O)N(Cc2cc(C(F)(F)F)cc(C(F)(F)F)c2)[C@H]1c1ccc(CO)cc1', 'hi'),
  ('O=C1C2C=CC(C(O)C(c3ccccc3)c3ccccc3)N(Nc3ccccc3)C2C(=O)N1c1ccccc1 (centres undefined)', 'lo'),
  ('C=CCC(OC(C)=O)[C@@H]1[C@@H](N(Cc2cc3ccccc3o2)C(=O)Cc2ccc(OC)cc2)c2cc(OCCCO)ccc2N1C(=O)Cc1ccc(OC)cc1 (some centres undefined)', 'lo'),
  ('COCCOC(=O)N1C(=O)[C@@]2(c3cc(C#Cc4ccc(OC)cc4)ccc31)[C@H](C(=O)N1CCCCCCC1)[C@H]1C(=O)O[C@H](c3ccccc3)[C@H](c3ccccc3)N1[C@@H]2c1ccccc1OCCO', 'med'),
  ('COCCCNC(=O)[C@@H]1c2ccccc2C(=O)N(C2CCCCC2)[C@H]1c1ccc(CO)cc1', 'lo'),
  ('CCC[C@@H]1[C@@H](Sc2ccccc2)[C@@H](C(=O)O)[C@H](c2ccc(C)cc2)N1S(=O)(=O)c1ccc(C)cc1', 'hi'),
  ('C[C@H]1NC(=O)C([C@@H](C)OCc2ccccc2)NC(=O)[C@@]23C(=O)N[C@@H](Cc4ccccc4)C2[C@H](C)[C@@]2(C)O[C@H]2C3/C=C/C/C=C\CNC1=O (some centres undefined)', 'med'),
  ('C=CCC(OC(C)=O)[C@@H]1[C@@H](N(Cc2cc3ccccc3o2)C(=O)c2ccc(-c3ccccc3)cc2)c2cc(OCCCO)ccc2N1C(=O)c1ccc2ccccc2n1 (some centres undefined)', 'hi');
